# target-of-assay: T1, Cyno BCMA-Avi-His (cynomolgus, UniProt A0A2K5UD97 2-53)
# T1 construct: SPR analyte; also called cynomolgus BCMA Avi-His protein
# T1 sequence (A0A2K5UD97 entry or part of it): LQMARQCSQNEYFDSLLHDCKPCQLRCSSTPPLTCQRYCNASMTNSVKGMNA
# protocol-text: SPR (Biacore T100), antibody captured on Protein A chip, antigen as analyte

{"binder": "CA10 Variant 2 (antibody, V domains shown) VH: QVQLVESGGGVVQPGRSLRLSCAASGFTFSNFGMHWVRQAPGRGLEWVAVIWSDETNRYYADSVKGRFTVSRDNVKSTVYLQMNSLISEDTAVYYCARDQQYCSSDSCFTWFDPWGQGTLVTVSS VL: QTVVTQEPSLTVSPGGTVTLTCASSTGTVTPSNYANWVQQKPGQAPRGLIGDNNSRPPGTPARFSASLLGGKAALTLSGVQPEDEAEYYCALWFGNQWVFGGGTKLTVL", "binding result": "binds"}
{"binder": "CA10 Variant 1 (antibody, V domains shown) VH: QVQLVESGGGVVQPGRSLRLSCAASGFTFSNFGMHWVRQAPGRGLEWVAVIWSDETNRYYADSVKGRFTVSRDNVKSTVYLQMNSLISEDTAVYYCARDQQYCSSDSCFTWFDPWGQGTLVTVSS VL: QTVVTQEPSLTVSPGGTVTLTCRSSTGTVTPSNYANWVQQKPDHFFTGLIGDNNSRPPGVPARFSASLIGDKAALTLSGVQPEDEAEYYCALWFGNQWVFGGGTKLTVL", "binding result": "binds"}
{"binder": "CA10_parental (antibody, V domains shown, tested as a mAb purified on mAbSelect SuRe; also called CA10_V2_parental; CA10 WT) VH: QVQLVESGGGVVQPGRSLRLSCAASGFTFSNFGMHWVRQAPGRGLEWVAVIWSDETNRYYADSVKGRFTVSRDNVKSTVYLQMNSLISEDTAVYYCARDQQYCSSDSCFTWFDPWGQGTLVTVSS VL: QVVVTQESALTTSPGETVTLTCRSSTGTVTPSNYANWVQEKPDHFFTGLIGDNNSRPPGVPARFSASLIGDKAALTITGAQTEDEAMYFCALWFGNQWVFGGGTKVTVL", "binding result": "binds"}
